assay method text: Plasma protein binding of brigatinib by rapid equilibrium dialysis of participants' plasma samples
Format: in vitro ADME, human
test settings: human, plasma, oral, 90 mg, Child-Pugh A, mild hepatic impairment (n=6); pooled 2, 8, 24 h postdose; read-out: mean fraction unbound (free) in plasma
measurement name: fraction unbound

Enquiry: Reported fraction unbound, compound COc1cc(N2CCC(N3CCN(C)CC3)CC2)ccc1Nc1ncc(Cl)c(Nc2ccccc2P(C)(C)=O)n1 [brigatinib] : ____
Return: 0.111

----------
assay method text: Single oral 90-mg dose plasma PK in participants with chronic hepatic impairment and matched healthy participants
Assay type: in vivo, human
test settings: human, plasma, po, 90 mg, single oral 90 mg; moderate (Child-Pugh B) (n=6); read-out: t1/2, terminal elimination half-life, geometric mean (geometric %CV) (converted)
Protocol: This open-label, parallel-group, inpatient, nonrandomized study was performed at 1 clinical study site, the Orlando Clinical Research Center (Orlando, FL, USA), and evaluated the PK of brigatinib after administration of a single oral 90-mg dose in participants with chronic hepatic impairment and in healthy participants with normal hepatic function. […]
measurement name: half-life

Enquiry: Reported half-life, molecule "COc1cc(N2CCC(N3CCN(C)CC3)CC2)ccc1Nc1ncc(Cl)c(Nc2ccccc2P(C)(C)=O)n1" : ____
Return: 48.7 h

----------
assay method text: Single oral 90-mg dose plasma PK in participants with chronic hepatic impairment and matched healthy participants
Type: in vivo, human
test settings: human, plasma, po, 90 mg, unbound; single oral 90 mg; moderate (Child-Pugh B) (n=6); read-out: AUC0−last,u, geometric mean (geometric %CV)
measurement name: AUC(0-t)
The reply should read as a number followed by its unit.

Enquiry: Reported AUC(0-t), molecule "COc1cc(N2CCC(N3CCN(C)CC3)CC2)ccc1Nc1ncc(Cl)c(Nc2ccccc2P(C)(C)=O)n1" : ____
Return: 578 ng·h/mL

----------
assay method text: Single oral 90-mg dose plasma PK in participants with chronic hepatic impairment and matched healthy participants
Format: in vivo, human
test settings: human, plasma, po, 90 mg, single oral 90 mg; normal hepatic function (n=9); read-out: t1/2, terminal elimination half-life, geometric mean (geometric %CV) (converted)
measurement name: half-life
The reply should read as a number followed by its unit.

Enquiry: Reported half-life, molecule COc1cc(N2CCC(N3CCN(C)CC3)CC2)ccc1Nc1ncc(Cl)c(Nc2ccccc2P(C)(C)=O)n1 [brigatinib] : ____
Return: 47.6 h

----------
assay method text: Single oral 90-mg dose plasma PK in participants with chronic hepatic impairment and matched healthy participants
Format: in vivo, human
test settings: human, plasma, po, 90 mg, single oral 90 mg, fasted; mild (Child-Pugh A) hepatic impairment (n=6); read-out: Tmax, median (range)
measurement name: Tmax (h)
Answers are plain numbers, in h.

Enquiry: Reported Tmax, molecule COc1cc(N2CCC(N3CCN(C)CC3)CC2)ccc1Nc1ncc(Cl)c(Nc2ccccc2P(C)(C)=O)n1 [brigatinib] : ____
Return: 1.75

----------
assay method text: Single oral 90-mg dose plasma PK in participants with chronic hepatic impairment and matched healthy participants
Assay type: in vivo, human
test settings: human, plasma, po, 90 mg, unbound; single oral 90 mg; moderate (Child-Pugh B) (n=6); read-out: AUC0−∞,u, geometric mean (geometric %CV)
measurement name: AUC(0-inf) (ng·h/mL)
Answers are plain numbers, in ng·h/mL.

Enquiry: Reported AUC(0-inf), compound COc1cc(N2CCC(N3CCN(C)CC3)CC2)ccc1Nc1ncc(Cl)c(Nc2ccccc2P(C)(C)=O)n1 [brigatinib] : ____
Return: 601
